- ASSAY_SUMMARY: in vivo
- EXPERIMENTAL_SETUP: female, SD, rat, 100 ug/kg, Concentration of TAP-144 in serum
MEASUREMENT_KIND: level at 0.5 h (ng/mL)

1) CCNC(=O)[C@@H]1CCCN1C(=O)[C@H](CCCNC(=N)N)NC(=O)[C@H](CC(C)C)NC(=O)[C@@H](CC(C)C)NC(=O)[C@H](Cc1ccc(O)cc1)NC(=O)[C@H](CO)NC(=O)[C@H](Cc1c[nH]c2ccccc12)NC(=O)[C@H](Cc1c[nH]cn1)NC(=O)[C@@H]1CCC(=O)N1 [TAP-144]; 28.1

---

- ASSAY_SUMMARY: in vivo
- EXPERIMENTAL_SETUP: female, SD, rat, 100 ug/kg, Concentration of TAP-144 in serum
MEASUREMENT_KIND: level at 4 h

1. CCNC(=O)[C@@H]1CCCN1C(=O)[C@H](CCCNC(=N)N)NC(=O)[C@H](CC(C)C)NC(=O)[C@@H](CC(C)C)NC(=O)[C@H](Cc1ccc(O)cc1)NC(=O)[C@H](CO)NC(=O)[C@H](Cc1c[nH]c2ccccc12)NC(=O)[C@H](Cc1c[nH]cn1)NC(=O)[C@@H]1CCC(=O)N1; 32.1 ng/mL

These measurements were taken from patent US4659696A.
